Entries and their efficacy
system: HCT116; experiment: efficacy (fitted maximal change in viability relative to DMSO control); higher = less cytotoxic (negative = loss of viability); details: 48 h;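 note: Luminescence-based viability readout, five doses per compound, normalized against on-plate DMSO and empty-well controls, followed by dose-response curve fitting for every drug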
Counter-ions that a name gives are not always drawn.
RECORDED ENDPOINT: efficacy (%)

INSERT INTO measurements (molecule, reported_value) VALUES
  ('O=C(NCCCNc1nc(Nc2ccc(N3CCOCC3)cc2)ncc1C1CC1)C1CCC1', -84.5),
  ('O=[N+]([O-])c1ccc(Nc2ccccc2-c2ccccc2)c2nonc12', -90.7),
  ('CC[C@@]1(O)C(=O)OCc2c1cc1n(c2=O)Cc2cc3c(CN(C)C)c(O)ccc3nc2-1.Cl [Topotecan hydrochloride]', -93),
  ('CCN(CC)CCCC(C)Nc1ccnc2cc(Cl)ccc12 (stereo not given) [Chloroquine]', -24.3),
  ('C[C@]12Cc3cn[nH]c3C[C@@H]1CC[C@@H]1[C@@H]2CC[C@@]2(C)[C@H]1CC[C@]2(C)O [Stanozolol]', -19.3),
  ('Cc1c[nH]c2nc(Nc3ccc(N4CCN(C)CC4)c(F)c3)nc(-c3cccc(CC#N)c3)c12 [SGI-7079]', -83.9),
  ('CCNC(=O)Nc1ccc(-c2nc3c(c(N4CCOC[C@@H]4C)n2)CCN(C2COC2)C3)cc1 [GDC-0349]', -46.9),
  ('CC[C@@H](C)Nc1cc(C(=O)NC2CC3CC[C@@H](C2)N3c2ccc(C(=O)C3CC3)cn2)c(C)cc1C(N)=O (stereo not given in full) [XL-888]', -59.7),
  ('CC(=O)OCCN1C(=O)c2c(C)nc3ccc([S+](=O)([O-])N4CCOCC4)cc3c2C1=O [Ivachtin]', -16.7),
  ('CCC(c1ccc(O)cc1)C(CC)c1ccc(O)cc1 (stereo not given) [Hexestrol]', -61.8),
  ('Cc1ccc(C)c(OCCCC(C)(C)C(=O)O)c1 [Gemfibrozil]', -13.1),
  ('N[S+]([O-])(=O)C1=C(Cl)C=C2\N=C/N[S+]([O-])(=O)C2=C1 [Chlorothiazide]', -4.38),
  ('C=C1C(=O)[C@@]23C(CC[C@@H]1[C@H]2O)[C@@]12CO[C@]3(O)[C@@H](O)[C@@H]1C(C)(C)CC[C@@H]2O (stereo not given in full) [Oridonin]', -98.8),
  ('COC1=CC=CC=C1C2=CC=CC(=C2)C/3=C(O)/C4=CC(=C(Cl)C=C4NC3=O)C#N [FASN MRK]', -12.8),
  ('CC(C)c1cc(CNc2nc(Nc3cc(C4CC4)[nH]n3)cc(N3CCN(C)CC3)n2)on1 [XL-228]', -64),
  ('CC(C)(C)C(=O)Oc1ccc2c(c1)nc(NC(=O)c1cccc([N+](=O)[O-])c1)n2CCCO', -19.1),
  ('NC(=O)c1noc([C@H](CCCC2CCCCC2)CC(=O)NO)n1', -86.4),
  ('NCCOc1cc(C(=O)Nc2cc(OCCN)c3ccccc3n2)nc(C(=O)Nc2cc(OCCN)c3ccccc3n2)c1 [Pyridostatin]', -78.9),
  ('CNC(=O)c1c(C)oc2cc(Oc3ncnc4cc(OC)c(OC)cc34)ccc12 [Fruquintinib]', -11.4),
  ('CONC(=O)Nc1ccc(-c2sc3c(c2CN(C)Cc2ccccc2)c(=O)n(-c2ccccc2)c(=O)n3Cc2c(F)cccc2F)cc1 [Sufugolix]', -35.8),
  ('CO[C@H]1C[C@H]2OC[C@@]2(OC(C)=O)[C@H]3[C@H](OC(=O)C4=CC=CC=C4)[C@]5(O)C[C@H](OC(=O)[C@H](O)[C@@H](NC(=O)OC(C)(C)C)C6=CC=CC=C6)/C(=C(/[C@@H](OC)C(=O)[C@]13C)C5(C)C)C [Cabazitaxel]', -57.4),
  ('CCc1c(C(=O)C(N)=O)c2c(OCC(=O)O)cccc2n1Cc1ccccc1 [Varespladib]', -27.8),
  ('CC(C)C[C@H](NC(=O)CNC(=O)c1cc(Cl)ccc1Cl)B(O)O [Ixazomib]', -89.3),
  ('CC1CNc2c(cccc2[S+](=O)([O-])N[C@@H](CCCNC(=N)N)C(=O)N2CC[C@@H](C)C[C@@H]2C(=O)O)C1 (stereo not given in full) [Argatroban]', -15.9),
  ('COc1ccc([S+](=O)([O-])N2CCc3cccc(-c4ccncc4)c32)cc1 [MPT-0B098]', -61.1),
  ('O=C1[C@H](CC[C@H](O)c2ccc(F)cc2)[C@@H](c2ccc(O)cc2)N1c1ccc(F)cc1 [Ezetimibe]', -48.2),
  ('CC1CC2=CC=CC=C2N1C(=O)C\C3=N\C(=O)\C=C(/N3)N4CCOCC4 (stereo not given)', -57.5),
  ('CC(C)OC(=O)/C1=C/N(CC(C)(C)C2=C1[NH]C3=CC=CC=C23)C(=O)C4=CC=C(F)C(=C4)F [Turofexorate isopropyl]', -17.9),
  ('OCCN1CCN(CCCN2c3ccccc3Sc3ccc(C(F)(F)F)cc32)CC1 [Fluphenazine hydrochloride]', -94.5),
  ('CN(C)C(=O)c1cc2cnc(Nc3ccc(N4CCNCC4)cn3)nc2n1C1CCCC1 [Ribociclib (LEE011)]', -12.5);
